I'd be grateful if you could share measured TGI for these entries.
Test system: OVCAR-3 ovarian
Test Description: NCI tumour cell line growth inhibition, 48 h
Numbers only, in µM.

NC(=O)c1cccc2cn(-c3ccc([C@@H]4CCCNC4)cc3)nc12 ... 31.6
C=C(C1=CC(=O)C(C)(C)O1)[C@@H]1CC=C([C@@H]2CC[C@H]3[C@@]2(C)CC[C@H]2C(C)(C)C(=O)[C@H](O)C[C@]32C)[C@H](O)O1 ... 2.4
Nc1ccccc1SC(C[N+](=O)[O-])c1ccc2c(c1)OCO2 (stereo not drawn) ... 12.4

Quick one: TGI of Cc1nc2ccccc2c(N)c1-c1cc(C)c2c(C)nc3ccccc3c2n1 ?
1.83

====

System: A498 renal
Test Description: NCI tumour cell line growth inhibition, 48 h
Attribute Measured: GI50

# annotated cases, reported GI50 shown
COc1cc(-c2nn(-c3ccc(NC(=O)c4ccc(Cl)c(C(F)(F)F)c4)cc3)cc2-c2ccncc2)ccc1Cl ... 2400 nM
O=C1C(Cl)=C(Nc2cccc(Cl)c2)C(=O)N1Cc1ccc(Cl)cc1Cl ... 771 nM
O=C1CC(c2ccc3c(c2)OCO3)Nc2ccccc21 (centres undefined) ... 13400 nM

Pending molecule:
Quick one: GI50 of COc1ccc(C(=O)Cn2c(C(=O)c3ccccc3)nc(-c3ccc(OC)cc3)c2-c2ccc(OC)cc2)cc1 ?
> 100000 nM

====

Tested on: MCF7 breast
Test Description: NCI tumour cell line growth inhibition, 48 h
Attribute Measured: TGI

# annotated cases, reported TGI shown
COc1cc([C@@H]2c3cc4c(cc3[C@@H](Nc3ccc([N+](=O)[O-])cc3C(=O)c3ccccc3)[C@H]3COC(=O)[C@H]23)OCO4)cc(OC)c1OC ... > 100 µM
C=C(Br)C(C)(Cl)CCC(Br)C(C)(C)Cl (centres undefined) ... > 100 µM
CNC(=O)OCC1=C(COC(=O)NC)C(C)N(c2ccc(OC)cc2)C1 (centres undefined) ... > 100 µM
Cc1cccc(/C=N/NC(=S)Nc2ccccc2)n1 ... > 25.7 µM
COc1ccc(C(=O)Cn2c(C(=O)c3ccccc3)nc(-c3ccc(OC)cc3)c2-c2ccc(OC)cc2)cc1 ... > 100 µM

# return TGI for each item in the list
1. CCC1(O)CC2CC(=O)OC2C1O (centres undefined)
2. Cc1ccc(NC2=C(Cl)C(=O)N(Cc3ccccc3)C2=O)cc1O

1. > 100 µM
2. > 100 µM

====

Tested on: LOX IMVI melanoma
Test Description: NCI tumour cell line growth inhibition, 48 h
Attribute Measured: TGI

# annotated cases, reported TGI shown
CCc1ccc(CCN2CCCCC2)nc1 ... > 100 µM
N=c1n(C(=O)N2CCCC2)c2cc(Cl)ccc2n1C1=NCCN1 ... > 100 µM

Pending compound:
Quick one: TGI of CN(C)C(=N)c1ccccc1 ?
> 100 µM

====

I'd be grateful if you could share measured GI50 for these entries.
Tested on: OVCAR-5 ovarian
Test Description: NCI tumour cell line growth inhibition, 48 h
Where a SMILES comes first, the peptide text is derived from it. [ ]: non-standard residue; d: D form. The star is where a group is joined. ξ: configuration not given here. X6 = FC(F)(F)c1cc(NC(=S)*)cc(C(F)(F)F)c1; ξF = NC(Cc1ccccc1)C(=O)O

# annotated cases, reported GI50 shown
CCCCCN(CCCCC)CCCNc1c2c(nc3ccc(Cl)cc13)CCCC2 ... 3.36 µM
NC(=O)c1sc(-n2cnc3ccccc32)cc1OCc1ccccc1Br ... 4.94 µM
Clc1ccc2c(NCCCCNc3nc(N4CCCCC4)nc4ccccc34)ccnc2c1 ... 2.17 µM
C=C(CN1CCN(c2ccc(Cl)cc2F)CC1)c1ccc(C(=O)Nc2ccccc2N)cc1 ... 51.7 µM

# return GI50 for each item in the list
1. COC1=CC(=O)c2nc(-c3ccncc3)[nH]c2C1=O
2. COC(=O)[C@@H](NC(=O)CNC(=O)[C@H]1CCCN1C(=O)C(Cc1ccccc1)NC(=S)Nc1cc(C(F)(F)F)cc(C(F)(F)F)c1)C(C)C (some centres undefined) (X6-[ξF][dP]GV-OMe)
3. CCC(CO)Nc1nc2ccc(Cl)cc2c2ccccc12 (centres undefined)
4. Cn1cc(C2=C(c3cn(C)c4ncccc34)C(=O)NC2=O)c2ccccc21

1. > 100 µM
2. 1.93 µM
3. 5.4 µM
4. 10.4 µM

Quick one: GI50 of COc1cc(-c2nn(-c3ccc(NC(=O)c4ccc(Cl)c(C(F)(F)F)c4)cc3)cc2-c2ccncc2)ccc1Cl ?
4.58 µM

====

I'd be grateful if you could share measured TGI for these entries.
Test system: CCRF-CEM leukemia
Test Description: NCI tumour cell line growth inhibition, 48 h

# return TGI for each item in the list
1. COc1cc2c(cc1OC)C(c1ccccc1CCCCl)=NCC2
2. Cc1nc2ccccc2c(N)c1-c1cc(C)c2c(C)nc3ccccc3c2n1
3. COc1cc([C@@H]2OCC3C(c4ccc5c(c4)OCO5)OCC32)cc(OC)c1OC (some centres undefined)
4. COc1nc(N)c(C(=O)CCl)c(=O)n1C
5. O=C1CCC(=O)N1n1c(Cc2ccccc2)n[nH]c1=O
6. O=C1C(=Cc2ccc(O)cc2)N=C(c2ccccc2)N1n1c(-c2ccccc2)nc2ccccc2c1=O

1. > 100 µM
2. 2.12 µM
3. > 100 µM
4. 79.8 µM
5. > 100 µM
6. > 100 µM

====

I'd be grateful if you could share measured TGI for these entries.
Test system: CAKI-1 renal
Test Description: NCI tumour cell line growth inhibition, 48 h

# annotated cases, reported TGI shown
CC1(c2ccc(F)cc2)C(C#N)C(=O)NC(=O)C1C#N (stereo unspecified) ... > 100 µM
O=CC[C@H]1C(=O)C[C@@H]2CCC[C@@H]21 ... > 100 µM
CN/N=C(/Cc1occc(=O)c1O)C(=O)Nc1ccccc1C ... > 100 µM
O=C(Nc1ccccc1OC(F)(F)F)Nc1n[nH]c2ccccc12 ... > 100 µM
Cc1cc(=O)[nH]c(NN2C(Cl)C(=O)C2c2ccccc2O)n1 (stereo unspecified) ... > 100 µM

Quick one: TGI of COC(=O)[C@H](Cc1c[nH]c2ccccc12)NP(=O)(O)OCC1C=CC(n2cc(C)c(=O)[nH]c2=O)O1 (stereo partly specified) ?
> 100 µM

====

I'd be grateful if you could share measured TGI for these entries.
System: CAKI-1 renal
Test Description: NCI tumour cell line growth inhibition, 48 h
Where a SMILES comes first, the peptide text is derived from it. [ ]: non-standard residue; d: D form. The star is where a group is joined. ξ: configuration not given here. X6 = FC(F)(F)c1cc(NC(=S)*)cc(C(F)(F)F)c1; ξF = NC(Cc1ccccc1)C(=O)O

# annotated cases, reported TGI shown
NC(=O)C(c1ccccc1)N1OC2C(=O)N(c3ccccc3)C(=O)C2C1c1c2ccccc2c(Cl)c2ccccc12 (centres undefined) ... > 100 µM
N#CC1C(C#N)C2(c3ccccc3)C(c3ccccc3)=NN(c3ccccc3)CC12 (centres undefined) ... > 100 µM

# return TGI for each item in the list
1. CCN(CC)CCC(=O)Nc1ccc2c(c1)C(=O)c1ccc(NC(=O)CCN(CC)CC)cc1C2=O
2. O=C1/C(=C/c2ccc(O)cc2)CC/C1=C\c1ccc(O)cc1
3. CN1C(=O)C(C)(C)C2(SC(C)(C)C2(C)C)N(C)C1=S (centres undefined)

14.7 µM
> 100 µM
> 100 µM

# return TGI for each item in the list
1. CC1=CC2C(O1)C1C(=O)C=CC(=O)C1=CC2[N+](=O)[O-] (centres undefined)
2. O=C(O)CSc1ccc([N+](=O)[O-])cc1[N+](=O)[O-]
3. COC(=O)[C@@H](NC(=O)CNC(=O)[C@H]1CCCN1C(=O)C(Cc1ccccc1)NC(=S)Nc1cc(C(F)(F)F)cc(C(F)(F)F)c1)C(C)C (some centres undefined) (X6-[ξF][dP]GV-OMe)
4. COc1ccc(C(OCC2OC(n3cc(C)c(=O)[nH]c3=O)CC2n2cc(Cn3cc(I)c(=O)[nH]c3=O)nn2)(c2ccccc2)c2ccccc2)cc1 (centres undefined)
5. [N-]=[N+]=Nc1cc(=O)oc2ccccc12

1. 9.33 µM
2. > 100 µM
3. 10.5 µM
4. > 100 µM
5. > 100 µM

# return TGI for each item in the list
1. O=C1C(=O)N(c2ccc(Cl)cc2Cl)C(=O)C(=O)C1c1nc2ccccc2s1
2. Cc1ccc(N=Nc2ccc(N(CCC#N)CCC#N)cc2C)c(Br)c1
3. CC(C)C/C(CC(=O)CCC(=O)Nc1ccccc1[N+](=O)[O-])=N\NC(=O)c1cc2ccccc2cc1O
4. O=c1[nH][nH]c(=O)n1Cc1ccccc1Cn1c(=O)[nH][nH]c1=O
5. CC(C)=CC(=O)C1c2cccc(O)c2C(=O)c2c(O)cc(C)cc21 (centres undefined)
6. c1ccc2cc(-c3cc(-c4cc(-c5ccc6ccccc6c5)on4)no3)ccc2c1
7. O=C(O)CN(CC(=O)O)C1CCCCC1N(CC(=O)O)CC(=O)NCCN=C=S (centres undefined)
8. CC/C=C\CCC/C=C1/C(=O)C=C[C@@H]1C/C=C\CCCC(=O)OC

> 100 µM
24.6 µM
> 100 µM
> 100 µM
21.5 µM
> 100 µM
> 100 µM
13.5 µM
